- testSummary: Intrinsic clearance in dog liver microsome measured per mg of protein
- Assay type: ADME, Canis lupus familiaris
- runConditions: microsomes
Below: a set of entries, each annotated with reported clearance.
Only the number, expressed in µL/min/mg, is required.

chemicalStructure	clearance [µL/min/mg]
C[C@@H]1CN(C(=O)[C@@H]2CN(C(C)(C)C)C[C@H]2c2ccc(F)cc2F)C[C@H](C)[C@@]1(O)c1ccc(F)cc1.Cl	8

# input compound: `C[C@@H]1CN(C(=O)[C@@H]2CN(C(C)(C)C)C[C@H]2c2ccc(F)cc2F)C[C@H](C)[C@@]1(O)c1ccccc1.Cl` ; wanted: its clearance 242

====

- testSummary: Volume of distribution at steady state in dog plasma at 0.5 mg/kg, iv
- Format: ADME, organism-based, Canis lupus familiaris
- Set-up: dose 0.5 mg/kg, route intravenous
- runConditions: read-out: Vdss
parameter: Vd (L/kg)
Only the number, expressed in L/kg, is required.

# input molecule: `C[C@@H]1CN(C(=O)[C@@H]2CN(C(C)(C)C)C[C@H]2c2ccc(F)cc2F)C[C@H](C)[C@@]1(O)c1ccccc1.Cl` ; wanted: its Vd 17

====

- experimentalTarget: Melanocortin receptor 4 (Homo sapiens)
- Sequence (P32245 whole entry): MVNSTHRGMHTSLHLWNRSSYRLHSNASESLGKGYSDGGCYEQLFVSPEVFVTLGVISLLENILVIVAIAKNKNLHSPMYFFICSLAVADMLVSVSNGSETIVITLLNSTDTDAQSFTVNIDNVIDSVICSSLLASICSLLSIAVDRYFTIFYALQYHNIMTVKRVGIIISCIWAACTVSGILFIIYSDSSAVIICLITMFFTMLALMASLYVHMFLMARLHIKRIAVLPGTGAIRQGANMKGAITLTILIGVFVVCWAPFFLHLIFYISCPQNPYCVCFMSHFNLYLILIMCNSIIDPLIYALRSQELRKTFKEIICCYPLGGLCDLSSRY
- testSummary: Agonist activity at human recombinant MC4 receptor expressed in CHO cells by cAMP responsive beta lactamase reporter gene assay
So basically: is EC50 under 30 nM? Then Satisfied. Not under? Then Not satisfied.

chemicalStructure	groupLabel
C[C@@H]1CN(C(=O)[C@H]2CN(c3cccnn3)C[C@@H]2c2ccc(F)cc2F)C[C@H](C)[C@@]1(O)c1ccccc1	Satisfied

Is 30 nM strictly greater than the molecule's reported EC50? molecule: `C[C@@H]1CN(C(=O)[C@@H]2CN(C)C[C@H]2c2ccc(F)cc2F)C[C@H](C)[C@@]1(O)c1ccc(Cl)cc1` Not satisfied

Is 30 nM strictly greater than the molecule's reported EC50? molecule: `CC(C)[C@@]1(O)[C@H](C)CN(C(=O)[C@@H]2CN(C(C)(C)C)C[C@H]2c2ccc(F)cc2F)C[C@@H]1C` Not satisfied

Is 30 nM strictly greater than the molecule's reported EC50? molecule: `CCC[C@@]1(O)[C@H](C)CN(C(=O)[C@H]2CN(c3cccnn3)C[C@@H]2c2ccc(F)cc2F)C[C@@H]1C` Satisfied

Is 30 nM strictly greater than the molecule's reported EC50? molecule: `CCN1C[C@@H](C(=O)N2C[C@@H](C)[C@](O)(c3cccc(F)c3)[C@@H](C)C2)[C@H](c2ccc(F)cc2F)C1` Not satisfied

Is 30 nM strictly greater than the molecule's reported EC50? molecule: `C[C@@H]1CN(C(=O)[C@H]2CN(c3cccnn3)C[C@@H]2c2ccc(F)cc2F)C[C@H](C)[C@@]1(O)c1ccc(F)cc1` Satisfied

Is 30 nM strictly greater than the molecule's reported EC50? molecule: `CCN1C[C@@H](C(=O)N2C[C@@H](C)[C@](O)(c3ccc(F)cc3F)[C@@H](C)C2)[C@H](c2ccc(F)cc2F)C1` Not satisfied

Is 30 nM strictly greater than the molecule's reported EC50? molecule: `CCN1C[C@@H](C(=O)N2C[C@@H](C)[C@](O)(c3ccc(F)c(F)c3)[C@@H](C)C2)[C@H](c2ccc(F)cc2F)C1` Not satisfied

Is 30 nM strictly greater than the molecule's reported EC50? molecule: `C[C@@H]1CN(C(=O)[C@H]2CN(C3CCC3)C[C@@H]2c2ccc(F)cc2F)C[C@H](C)[C@@]1(O)c1ccccc1` Not satisfied

Is 30 nM strictly greater than the molecule's reported EC50? molecule: `COCCN1C[C@H](C(=O)N2C[C@@H](C)[C@](O)(c3ccccc3)[C@@H](C)C2)[C@@H](c2ccc(F)cc2F)C1` Not satisfied

Entry source: ChEMBL document CHEMBL1156187
